# study-target: human galectin-8C (C-terminal domain) (Homo sapiens, UniProt O00214)
# Construct: 4N (N-terminal domain) 4C (C-terminal domain), 7, 8N, 8C, 9N, and 9C; made in house
# Sequence (O00214 187-317 limits assumed): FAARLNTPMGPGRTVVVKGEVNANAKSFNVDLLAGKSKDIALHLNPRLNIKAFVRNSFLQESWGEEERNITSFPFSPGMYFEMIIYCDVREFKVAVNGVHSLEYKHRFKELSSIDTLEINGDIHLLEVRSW
# run-description: competitive fluorescence polarization assay, galectin-8C
# Assay type: binding
# applied-conditions: Table 1, average and SEM, PBS
measured-quantity: Kd

Illustrative cases are given below, each with its answer.
[
  {
    "molecule": "CO[C@@H]1O[C@H](CO)[C@H](O)[C@@H](CNP(=O)(Oc2ccccc2)Oc2ccccc2)[C@H]1O [Compound 8]",
    "result": "> 4 mM"
  },
  {
    "molecule": "CO[C@@H]1O[C@H](CO)[C@H](O)[C@H](Cn2cc(-c3cccc(F)c3)nn2)[C@H]1O [Compound 4]",
    "result": "> 4 mM"
  },
  {
    "molecule": "CO[C@@H]1O[C@H](CO)[C@H](O)[C@@H](CNS(=O)(=O)c2ccccc2)[C@H]1O [Compound 6]",
    "result": "> 4 mM"
  }
]

With those in mind, consider the next molecule.
Kd reading for CO[C@@H]1O[C@H](CO)[C@H](O)[C@H](CNC(=O)Nc2cccc(F)c2)[C@H]1O [Compound 5] : > 4 mM
